melting temperature (Tm) of eIF4A1(19-406)-(AG)5-AMPPNP-Rocaglate complex: recorded values
- assay.system: eIF4A1(19-406)-(AG)5-AMPPNP complex (purified recombinant human eIF4A) (Homo sapiens, UniProt P60842)
- Construct: eIF4A1(19-406)=amino acid residues 19-406 of eIF4A1; made in house
- Sequence (P60842 19-406, one chain of several): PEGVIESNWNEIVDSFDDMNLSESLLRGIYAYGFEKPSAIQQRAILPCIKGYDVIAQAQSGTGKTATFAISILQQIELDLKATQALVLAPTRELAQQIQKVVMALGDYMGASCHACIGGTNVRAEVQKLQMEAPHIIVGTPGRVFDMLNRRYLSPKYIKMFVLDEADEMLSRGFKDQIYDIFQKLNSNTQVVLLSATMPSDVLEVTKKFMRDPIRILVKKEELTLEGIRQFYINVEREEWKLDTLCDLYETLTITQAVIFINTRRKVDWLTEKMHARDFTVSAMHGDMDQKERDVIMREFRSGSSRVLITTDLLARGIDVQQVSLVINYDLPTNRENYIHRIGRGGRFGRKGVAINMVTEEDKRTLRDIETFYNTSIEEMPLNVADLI
- test.name: Thermal shift assay, melting temperature of eIF4A1(19-406)-(AG)5-AMPPNP-rocaglate complexes
- Assay type: binding
- experimental.setup: 5 μM eIF4A, 50 μM (AG)5 RNA, 1 mM AMP-PNP, 100 μM compound; DMSO negative control Tm=48.80
result.type: melting temperature (Tm) of eIF4A1(19-406)-(AG)5-AMPPNP-Rocaglate complex

{"columns": ["chem.smiles", "quantitative.result"],
 "data": [
  ["CONC(=O)[C@@H]1[C@H](O)[C@]2(O)c3c(OC)cc(O)cc3O[C@]2(c2ccc(OC)cc2)[C@H]1c1ccccc1", 49.07],
  ["CONC(=O)[C@H]1[C@@H](O)[C@@]2(O)c3c(OC)cc(O)cc3O[C@@]2(c2ccc(OC)cc2)[C@@H]1c1ccccc1", 51.29],
  ["COc1cc(OC)c2c(c1)O[C@]1(c3ccc(O)cc3)[C@@H](c3ccccc3)[C@H](C(N)=O)[C@H](O)[C@]21O", 51.07],
  ["COc1cc(OC)c2c(c1)O[C@@]1(c3ccc(O)cc3)[C@H](c3ccccc3)[C@@H](C(N)=O)[C@@H](O)[C@@]21O", 55.44],
  ["CONC(=O)[C@H]1[C@@H](O)[C@@]2(O)c3c(OC)cc(OC)cc3O[C@@]2(c2ccc(O)cc2)[C@@H]1c1ccccc1", 51.49]
]}
